Test system: Streptococcus sp.
Assay: In vitro antibacterial evaluation: minimum inhibitory concentration (MIC), broth dilution method
Assay type: cell-based
Settings: broth dilution, inoculum 5×10^5 CFU/mL, 18 hours at 35° C.
Excerpt: […]
READOUT: MIC Streptococcus pneumoniae (GC 4565)

Look at this molecule and give its reported MIC Streptococcus pneumoniae (GC 4565). COc1ccc(COCC2OC(OC3C(CO)OC(Oc4ccc(CC5NC(=O)C(C(C)c6ccccc6)NC(=O)CNC(=O)C(CO)NC(=O)C(C(O)C6CNC(=N)N6C6OC(CO)C(O)C(O)C6O)NC(=O)C(C(O)C6CNC(=N)N6)NC5=O)cc4)C(O)C3O)C(O)C(O)C2O)cc1 (centres unmarked)
1 mg/L

Param item: COc1cc(C2OCC3OC(OC4C(CO)OC(Oc5ccc(CC6NC(=O)C(C(C)c7ccccc7)NC(=O)CNC(=O)C(CO)NC(=O)C(C(O)C7CNC(=N)N7C7OC(CO)C(O)C(O)C7O)NC(=O)C(C(O)C7CNC(=N)N7)NC6=O)cc5)C(O)C4O)C(O)C(O)C3O2)cc([N+](=O)[O-])c1O (centres unmarked)
8 mg/L

What do we get for CC(C)=CCOc1cccc(C2OCC3OC(OC4C(CO)OC(Oc5ccc(CC6NC(=O)C(C(C)c7ccccc7)NC(=O)CNC(=O)C(CO)NC(=O)C(C(O)C7CNC(=N)N7C7OC(CO)C(O)C(O)C7O)NC(=O)C(C(O)C7CNC(=N)N7)NC6=O)cc5)C(O)C4O)C(O)C(O)C3O2)c1 (centres unmarked) ?
0.12 mg/L

Same question for CC(c1ccccc1)C1NC(=O)CNC(=O)C(CO)NC(=O)C(C(O)C2CNC(=N)N2C2OC(CO)C(O)C(O)C2O)NC(=O)C(C(O)C2CNC(=N)N2)NC(=O)C(Cc2ccc(OC3OC(CO)C(OC4OC5COC(c6ccc(-c7cccs7)cc6)OC5C(O)C4O)C(O)C3O)cc2)NC1=O (centres unmarked) please.
1 mg/L

Lookup CC(c1ccccc1)C1NC(=O)CNC(=O)C(CO)NC(=O)C(C(O)C2CNC(=N)N2C2OC(CO)C(O)C(O)C2O)NC(=O)C(C(O)C2CNC(=N)N2)NC(=O)C(Cc2ccc(OC3OC(CO)C(OC4OC5COC6(CCSCC6)OC5C(O)C4O)C(O)C3O)cc2)NC1=O (centres unmarked)
0.5 mg/L

Repeat for the following molecule: CC(c1ccccc1)C1NC(=O)CNC(=O)C(CO)NC(=O)C(C(O)C2CNC(=N)N2C2OC(CO)C(O)C(O)C2O)NC(=O)C(C(O)C2CNC(=N)N2)NC(=O)C(Cc2ccc(OC3OC(CO)C(OC4OC5COC6(OC5C(O)C4O)C4CCCC6CCC4)C(O)C3O)cc2)NC1=O (centres unmarked)
0.25 mg/L

CC(C1CCCCC1)C1NC(=O)CNC(=O)C(CO)NC(=O)C(C(O)C2CNC(=N)N2C2OC(CO)C(O)C(O)C2O)NC(=O)C(C(O)C2CNC(=N)N2)NC(=O)C(Cc2ccc(OC3OC(CO)C(OC4OC5COC(c6ccccc6)OC5C(O)C4O)C(O)C3O)cc2)NC1=O (centres unmarked) , same question.
<0.12 mg/L

What do you get for CC(c1ccccc1)C1NC(=O)CNC(=O)C(CO)NC(=O)C(C(O)C2CNC(=N)N2C2OC(CO)C(O)C(O)C2O)NC(=O)C(C(O)C2CNC(=N)N2)NC(=O)C(Cc2ccc(OC3OC(CO)C(OC4OC5COC6(CC7CCC6(C)C7(C)C)OC5C(O)C4O)C(O)C3O)cc2)NC1=O (centres unmarked) [Example 215] ?
<0.12 mg/L

Thanks! And CC(c1ccccc1)C1NC(=O)CNC(=O)C(CO)NC(=O)C(C(O)C2CNC(=N)N2C2OC(CO)C(O)C(O)C2O)NC(=O)C(C(O)C2CNC(=N)N2)NC(=O)C(Cc2ccc(OC3OC(CO)C(OC4OC5COC(c6ccc(-c7ccsc7)cc6)OC5C(O)C4O)C(O)C3O)cc2)NC1=O (centres unmarked) ?
<0.06 mg/L

Now consider CC(c1ccccc1)C1NC(=O)CNC(=O)C(CO)NC(=O)C(C(O)C2CNC(=N)N2C2OC(CO)C(O)C(O)C2O)NC(=O)C(C(O)C2CNC(=N)N2)NC(=O)C(Cc2ccc(OC3OC(CO)C(OC4OC5COC6(CC7CCC6(C)C7(C)C)OC5C(O)C4O)C(O)C3O)cc2)NC1=O (centres unmarked) [Example 214] .
<0.12 mg/L

How about this molecule: CC(c1ccccc1)C1NC(=O)CNC(=O)C(CO)NC(=O)C(C(O)C2CN(c3nc4ccccc4o3)C(=N)N2C2OC(CO)C(O)C(O)C2O)NC(=O)C(C(O)C2CNC(=Nc3nc4ccccc4o3)N2)NC(=O)C(Cc2ccc(OC3OC(CO)C(OC4OC5COC6(OC5C(O)C4O)C4CC5CC(C4)CC6C5)C(O)C3O)cc2)NC1=O (centres unmarked)
64 mg/L

What do we get for CC(c1ccccc1)C1NC(=O)CNC(=O)C(CO)NC(=O)C(C(O)C2CNC(=N)N2C2OC(CO)C(O)C(O)C2O)NC(=O)C(C(O)C2CNC(=N)N2)NC(=O)C(Cc2ccc(OC3OC(CO)C(OC4OC5COC(c6ccc(C(=O)c7cc(I)c(I)c(I)c7)cc6)OC5C(O)C4O)C(O)C3O)cc2)NC1=O (centres unmarked) ?
<0.12 mg/L

And N=C1NCC(C(O)C2NC(=O)C(CC3CCC(OC4OC(CO)C(OC5OC6COC7(OC6C(O)C5O)C5CC6CC(C5)CC7C6)C(O)C4O)CC3)NC(=O)C(CC3CCCCC3)NC(=O)CNC(=O)C(CO)NC(=O)C(C(O)C3CNC(=N)N3C3OC(CO)C(O)C(O)C3O)NC2=O)N1 (centres unmarked) ?
>64 mg/L

One more molecule: CC(c1ccccc1)C1NC(=O)CNC(=O)C(CO)NC(=O)C(C(O)C2CNC(=N)N2C2OC(CO)C(O)C(O)C2O)NC(=O)C(C(O)C2CNC(=N)N2)NC(=O)C(Cc2ccc(OC3OC(CO)C(OC4OC(CO)C(O)C5OC(c6ccc(-c7ccsc7)cc6)OC45)C(O)C3O)cc2)NC1=O (centres unmarked) [Example 164a]
1 mg/L
